test: chemical genetic growth profiling, strain panel (AID 1159580);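 further: tested at 20 µM; growth read once vehicle control cultures reached saturation at 30 °C; 1 = growth at the plate median or of vehicle wells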; details: S. cerevisiae deletion strains, growth OD, locus YJL164C, strain tpk1
Hit rate of the full screen: of about 5,500 compounds, about 2,000 (36%) were called active. Not shown: some 18% with an inconclusive outcome. No stated cut-off is given here; in the data, active means normalized growth mostly below about 0.91 (no sharp cut-off); inconclusive means no clear call, values can overlap the other calls; inactive means mostly above about 0.92. This is one part of the list.
Outcome codes: active, inactive

compound | group-label
Cn1c(=O)[nH]c2ncn(C)c2c1=O | inactive
CC(C)[C@@H]1CC[C@@H](C)CC1=O | inactive
Oc1cccc2cccnc12 | active
CCC[C@@H]1C[C@@H](C(=O)N[C@H]([C@H]2O[C@H](SC)[C@H](O)[C@@H](O)[C@H]2O)[C@H](C)O)N(C)C1 | inactive
O=C1C=CC(=O)c2c(O)cccc21 | inactive
ClC1C(Cl)C(Cl)C(Cl)C(Cl)C1Cl (stereo unspecified) | inactive
C=CC[C@@H]1/C=C(\C)C[C@H](C)C[C@H](OC)[C@H]2O[C@@](O)(C(=O)C(=O)N3CCCC[C@H]3C(=O)O[C@H](/C(C)=C/[C@@H]3CC[C@@H](O)[C@H](OC)C3)[C@H](C)[C@@H](O)CC1=O)[C@H](C)C[C@@H]2OC | active
CC(=O)O[C@H]1CC2CCC3C(CC[C@@]4(C)C3C[C@H]([N+]3(C)CCCCC3)[C@@H]4OC(C)=O)[C@@]2(C)C[C@@H]1N1CCCCC1 (stereo partly specified) | inactive
Cc1cc(O)c2c(c1)C(=O)c1cccc(O)c1C2=O | inactive
COc1cc(O)c2c(c1)C(=O)c1cc(C)cc(O)c1C2=O | inactive
NS(=O)(=O)c1cc2c(cc1Cl)NCNS2(=O)=O | inactive
O=C(O)[C@H]1/C(=C/CO)O[C@@H]2CC(=O)N21 | inactive
Oc1cc2c(cc1O)C(c1ccccc1)CNCC2 (stereo unspecified) | inactive
CON | inactive
O=C(/C=C/c1ccccc1)c1ccc(O[C@@H]2O[C@H](CO)[C@@H](O)[C@H](O)[C@H]2O)cc1O | active
O=c1c(O)c(-c2ccccc2)oc2cccc(O)c12 | active
Cn1c(=O)c2c(ncn2CCO)n(C)c1=O | inactive
COc1ccccc1OCC(O)COC(N)=O (stereo unspecified) | inactive
CC(=O)NS(=O)(=O)c1ccc(N)cc1 | inactive
O=C(O)C1=C(CSc2nnnn2CS(=O)(=O)O)CS[C@@H]2C(NC(=O)[C@H](O)c3ccccc3)C(=O)N12 (stereo partly specified) | inactive
O=C(O)CCC(=O)OC[C@@H](NC(=O)C(Cl)Cl)[C@H](O)c1ccc([N+](=O)[O-])cc1 | inactive

---

assay: chemical genetic growth profiling, strain panel (AID 1159580);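 further: tested at 20 µM; growth read once vehicle control cultures reached saturation at 30 °C; 1 = growth at the plate median or of vehicle wells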; settings: S. cerevisiae deletion strains, growth OD, locus YHR087W, strain rtc3, active compounds read low
The campaign covered roughly 5,500 compounds. About 2,000 (36%) were called active. Not shown: some 18% with an inconclusive outcome. This is one part of the list.
Criterion: normalized growth strictly less than 0.9. Met: label 1. Not met: label 0.

molecule | group-label
O=C1CSC(c2cccnc2)N1c1ccc(C2CCCCC2)cc1 (stereo not given) | label 0
COc1cc2ncnc(Nc3cccc(Cl)c3)c2cc1OC | label 0
FC(F)(F)c1cc(-c2ccco2)nc2cc(-c3ccco3)nn12 | label 0
C/C(=N/O)c1ccn(S(=O)(=O)c2ccc(Cl)cc2)c1 | label 0
Cn1c(Sc2ccc(C(F)(F)F)cc2[N+](=O)[O-])nnc1C(F)(F)F | label 0
COc1ccccc1N1CC(C)(C)C(=O)N(C(=O)c2c(F)cccc2Cl)C1=S | label 0
Nc1nc(Sc2cc(-n3cccc3)c(Cl)cc2[N+](=O)[O-])n[nH]1 | label 0
O=C(OCCNc1ccc([N+](=O)[O-])cn1)c1ccc([N+](=O)[O-])o1 | label 1
N#Cc1cc(I)c(C#N)c(I)c1 | label 1
O=C1c2ccccc2C(=O)N1CNc1cccc(Cl)c1 | label 0
CC(=N/O)/C(C)=C/c1ccc(Cl)cc1 | label 1
CCOC(=O)CC(=O)CSc1nnc(N)s1 | label 0
O=[N+]([O-])c1cc(C(F)(F)F)ccc1Sc1ccc(Cl)cc1 | label 0
CC(=O)c1ccc(Sc2ccccn2)c([N+](=O)[O-])c1 | label 0
